biological target: Prostaglandin E2 receptor EP4 subtype (Homo sapiens); experiment: Agonist activity at human EP4 receptor expressed in HEK293 cells by calcium-5 dye based FLIPR assay relative to control; type: functional, cell-based
OBSERVABLE: Emax (%)

>>> obs_value("CCCCCC(C)(O)/C=C/c1c(Cl)cc(Cl)c(=O)n1CCc1ccc(C(=O)O)cc1 (stereo not drawn)")
139
>>> obs_value("CCCCCC(O)/C=C/c1c(Cl)cc(Cl)c(=O)n1CCc1ccc(C(=O)O)cc1 (single isomer, unassigned; ent-9)")
136
>>> obs_value("CCCCCC(O)CCc1c(Cl)cc(Cl)c(=O)n1CCc1ccc(C(=O)O)cc1 (stereo not drawn)")
138
>>> obs_value("CCCCCC(O)/C=C/c1c(Cl)cc(Cl)c(=O)n1CCc1ccc(C(=O)O)cc1 (stereo in doubt; 9)")
146
>>> obs_value("CCCCCC(O)CCc1cccc(=O)n1CCCCCCC(=O)O (stereo not drawn)")
103
>>> obs_value("CCCCCC(O)/C=C/c1c(Cl)cc(Cl)c(=O)n1CCc1ccc(C(=O)O)cc1 (racemic)")
129
>>> obs_value("CCCCCC(O)/C=C/c1c(Cl)cc(Cl)c(=O)n1CCCCCCC(=O)O (stereo not drawn)")
123
>>> obs_value("CCCCCC(O)/C=C/c1c(Br)cc(Br)c(=O)n1CCCCCCC(=O)O (stereo not drawn)")
99

* * *

target: Prostaglandin E2 receptor EP4 subtype (Homo sapiens, UniProt P35408); experiment: Agonist activity at human EP4 receptor expressed in HEK293 cells by calcium-5 dye based FLIPR assay
Sequence (P35408 whole entry): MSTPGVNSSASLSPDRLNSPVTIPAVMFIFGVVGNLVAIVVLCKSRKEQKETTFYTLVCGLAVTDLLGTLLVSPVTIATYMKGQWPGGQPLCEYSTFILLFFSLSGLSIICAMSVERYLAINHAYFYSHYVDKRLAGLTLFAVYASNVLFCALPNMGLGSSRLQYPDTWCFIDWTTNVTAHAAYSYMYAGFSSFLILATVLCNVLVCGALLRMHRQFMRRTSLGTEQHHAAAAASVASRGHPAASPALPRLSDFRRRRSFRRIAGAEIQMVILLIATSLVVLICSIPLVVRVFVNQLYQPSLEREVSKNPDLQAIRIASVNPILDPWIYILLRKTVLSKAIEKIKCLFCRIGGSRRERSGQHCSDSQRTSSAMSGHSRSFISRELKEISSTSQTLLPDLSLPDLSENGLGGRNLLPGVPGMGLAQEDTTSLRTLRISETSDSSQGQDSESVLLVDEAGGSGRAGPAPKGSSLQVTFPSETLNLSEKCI
pEC50: −log10 of the molar value.
OBSERVABLE: pEC50

>>> obs_value("CCCCCC(O)/C=C/c1c(Cl)cc(Cl)c(=O)n1CCc1ccc(C(=O)O)cc1 (single isomer, unassigned; ent-9)")
7.22
>>> obs_value("CCCCCC(O)/C=C/c1c(Cl)cc(Cl)c(=O)n1CCc1ccc(C(=O)O)cc1 (racemic)")
8.15
>>> obs_value("CCCCCC(O)CCc1cccc(=O)n1CCCCCCC(=O)O (stereo not drawn)")
6.26
>>> obs_value("CCCCCC(O)/C=C/c1c(Cl)cc(Cl)c(=O)n1CCc1ccc(C(=O)O)cc1 (stereo in doubt; 9)")
7.89
>>> obs_value("CCCCCC(O)/C=C/c1c(Br)cc(Br)c(=O)n1CCCCCCC(=O)O (stereo not drawn)")
6.44
>>> obs_value("CCCCCC(O)CCc1c(Cl)cc(Cl)c(=O)n1CCc1ccc(C(=O)O)cc1 (stereo not drawn)")
8.31
>>> obs_value("CCCCCC(C)(O)/C=C/c1c(Cl)cc(Cl)c(=O)n1CCc1ccc(C(=O)O)cc1 (stereo not drawn)")
7.54
>>> obs_value("CCCCCC(O)/C=C/c1c(Cl)cc(Cl)c(=O)n1CCCCCCC(=O)O (stereo not drawn)")
6.80

* * *

target: UniProt:P43115; assay: Agonist activity at human EP3 receptor expressed in HEK293 cells by calcium-5 dye based FLIPR assay
Sequence (P43115 whole entry): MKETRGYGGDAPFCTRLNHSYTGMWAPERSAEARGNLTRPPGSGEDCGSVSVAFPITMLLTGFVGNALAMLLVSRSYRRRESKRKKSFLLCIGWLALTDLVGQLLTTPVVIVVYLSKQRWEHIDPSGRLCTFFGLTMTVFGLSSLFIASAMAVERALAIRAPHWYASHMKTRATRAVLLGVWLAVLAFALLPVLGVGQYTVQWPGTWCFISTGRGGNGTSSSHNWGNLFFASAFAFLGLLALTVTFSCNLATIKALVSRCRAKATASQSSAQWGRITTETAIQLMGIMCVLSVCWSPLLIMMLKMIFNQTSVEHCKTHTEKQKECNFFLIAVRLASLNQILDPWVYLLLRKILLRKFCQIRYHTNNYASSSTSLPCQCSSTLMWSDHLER
Each entry below carries its reported EC50.
OBSERVABLE: EC50

>>> obs_value("CCCCCC(O)/C=C/c1c(Cl)cc(Cl)c(=O)n1CCCCCCC(=O)O (stereo unspecified)")
"> 10 µM"
>>> obs_value("CCCCCC(O)/C=C/c1c(Br)cc(Br)c(=O)n1CCCCCCC(=O)O (stereo unspecified)")
"> 10 µM"
>>> obs_value("CCCCCC(O)/C=C/c1c(Cl)cc(Cl)c(=O)n1CCc1ccc(C(=O)O)cc1 (racemic)")
"> 10 µM"
>>> obs_value("CCCCCC(O)CCc1c(Cl)cc(Cl)c(=O)n1CCc1ccc(C(=O)O)cc1 (stereo unspecified)")
"> 10 µM"
>>> obs_value("CCCCCC(O)CCc1cccc(=O)n1CCCCCCC(=O)O (stereo unspecified)")
"2.7 µM"
>>> obs_value("CCCCCC(C)(O)/C=C/c1c(Cl)cc(Cl)c(=O)n1CCc1ccc(C(=O)O)cc1 (stereo unspecified)")
"> 10 µM"

* * *

Each entry below carries its reported pEC50.
molecular target: UniProtKB P43116; test: Agonist activity at human EP2 receptor expressed in HEK293 cells by calcium-5 dye based FLIPR assay
Sequence (P43116 whole entry): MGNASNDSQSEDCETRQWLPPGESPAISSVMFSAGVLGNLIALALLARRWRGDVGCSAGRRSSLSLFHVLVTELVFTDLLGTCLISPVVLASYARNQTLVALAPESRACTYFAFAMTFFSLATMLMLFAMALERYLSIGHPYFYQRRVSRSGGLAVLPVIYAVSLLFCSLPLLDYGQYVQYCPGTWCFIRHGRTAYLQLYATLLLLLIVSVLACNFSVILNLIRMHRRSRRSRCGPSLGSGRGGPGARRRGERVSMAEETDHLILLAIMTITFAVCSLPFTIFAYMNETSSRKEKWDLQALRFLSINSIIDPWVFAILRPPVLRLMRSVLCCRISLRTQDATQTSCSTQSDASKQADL
pEC50: −log10 of the molar value.
OBSERVABLE: pEC50

>>> obs_value("CCCCCC(O)/C=C/c1c(Cl)cc(Cl)c(=O)n1CCc1ccc(C(=O)O)cc1 (racemic)")
"< 5.00"
>>> obs_value("CCCCCC(O)CCc1c(Cl)cc(Cl)c(=O)n1CCc1ccc(C(=O)O)cc1 (stereo unspecified)")
5.82
>>> obs_value("CCCCCC(O)/C=C/c1c(Br)cc(Br)c(=O)n1CCCCCCC(=O)O (stereo unspecified)")
"< 5.00"
>>> obs_value("CCCCCC(C)(O)/C=C/c1c(Cl)cc(Cl)c(=O)n1CCc1ccc(C(=O)O)cc1 (stereo unspecified)")
5.33
>>> obs_value("CCCCCC(O)CCc1cccc(=O)n1CCCCCCC(=O)O (stereo unspecified)")
"< 5.00"
>>> obs_value("CCCCCC(O)/C=C/c1c(Cl)cc(Cl)c(=O)n1CCCCCCC(=O)O (stereo unspecified)")
"< 5.00"

// data source = ChEMBL document CHEMBL4627342
